Biological target: human M1 receptor (Homo sapiens, UniProt P11229)
Sequence (P11229 whole entry): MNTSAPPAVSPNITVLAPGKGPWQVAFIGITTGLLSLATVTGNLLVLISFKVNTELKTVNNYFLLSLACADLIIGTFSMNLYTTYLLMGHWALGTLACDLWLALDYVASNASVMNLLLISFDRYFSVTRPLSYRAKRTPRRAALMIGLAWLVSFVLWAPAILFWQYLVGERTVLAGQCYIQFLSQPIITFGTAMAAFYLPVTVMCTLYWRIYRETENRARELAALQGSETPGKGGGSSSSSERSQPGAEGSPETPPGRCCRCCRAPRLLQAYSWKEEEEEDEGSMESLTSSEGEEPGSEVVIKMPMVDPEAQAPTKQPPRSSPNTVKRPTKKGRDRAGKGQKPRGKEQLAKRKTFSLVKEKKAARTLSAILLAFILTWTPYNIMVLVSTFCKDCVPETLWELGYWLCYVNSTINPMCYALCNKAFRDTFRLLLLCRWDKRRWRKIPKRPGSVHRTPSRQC
Experiment: In vitro functional assay of muscarinic acetylcholine receptor activity (aequorin calcium flux, antagonist mode vs EC80 acetylcholine), M1
Format: cell-based
Conditions: CHO-K1 cells stably expressing human M1 receptor with Aequorin; decrease in EC80 acetylcholine response; read-out: M1 IC50
pIC50: −log10 of the molar value.
endpoint: pIC50

Use these answered entries as a reference point.
smi=Cc1cc(F)cnc1N1CCN(C(=O)CCCS(=O)(=O)c2cccc3ncsc23)[C@@H](C)C1 reading="5.00 to 6.00"
smi=O=C([C@H]1C[C@H](Nc2cccc3ncccc23)C1)N1CC2CCC(C1)N2c1ccncc1 reading="5.00 to 6.00"
smi=COc1cnc2cccc(S(=O)(=O)CCCC(=O)N3CCN(c4ncc(F)cc4C)C[C@@H]3C)c2c1 reading="6.00 to 7.00"

Exercise: Hello, I am looking for reported pIC50 with human M1 receptor (Homo sapiens, UniProt P11229) for Cc1cc(F)cnc1N1CCN(C(=O)CCCc2cccc3ncccc23)CC1 . Could you help?
Key: > 7.00

Exercise: What pIC50 appears in the records for this molecule with human M1 receptor (Homo sapiens, UniProt P11229)? O=C(COCc1cccc2cnccc12)N1C[C@H]2CC[C@@H](C1)N2c1ccc(F)cn1
Key: 5.00 to 6.00

Exercise: Hello, I am looking for reported pIC50 with human M1 receptor (Homo sapiens, UniProt P11229) for N#Cc1ccc(N2CCN(C(=O)CCCc3cccc4ncoc34)CC2)nc1 . Could you help?
Key: 6.00 to 7.00

Exercise: API: value(readout= pIC50, system= human M1 receptor (Homo sapiens, UniProt P11229), query= COc1cnccc1N1CCN(C(=O)CCCc2cccc3ncccc23)[C@@H](C)C1 )
Key: > 7.00

Exercise: Recall the recorded pIC50 for Cc1cc(F)cnc1N1CCN(C(=O)CNCc2cccc3ncccc23)[C@@H](C)C1 with human M1 receptor (Homo sapiens, UniProt P11229) and state it.
Key: 6.00 to 7.00
